B1: glmS ribozyme (parent)
chain: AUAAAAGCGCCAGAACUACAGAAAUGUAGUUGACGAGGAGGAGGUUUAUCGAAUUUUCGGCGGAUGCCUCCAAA

Variants of: B1
Assay: self-cleavage kobs at 10000 uM GlcN6P; higher = faster cleavage; RNA array
Details: with glucosamine-6-phosphate
Variants at the floor of the assay were thinned out.
quantity-kind: self-cleavage kobs at 10000 uM GlcN6P (s⁻¹)
# number only, unit s⁻¹ dropped from output

Query :: Find the recorded self-cleavage kobs at 10000 uM GlcN6P belonging to AUAAAAGCGCCAGAACUACAGAAAUGUAAUUGACGAGGAGGAGGUUUAUCGAAUUUUCGGCGGAUGCCUACAAA [G29A C70A] and report it.
Result :: 2.96e-05

Query :: Find the recorded self-cleavage kobs at 10000 uM GlcN6P belonging to AUAAAAGCGGCAGAACUACAGAAAUGUAGUUGACGAGGAGGAGGUUUAUGGAAUUUUCGGCGGAUGCCUCCAAA [C10G C50G] and report it.
Result :: 4.6e-05

Query :: Find the recorded self-cleavage kobs at 10000 uM GlcN6P belonging to AUAAAAGCGCCAGGAUUACAGAAAUGUAGUUGACGAGGAGUAGGUUUAUCGAAUUUUCGGCGGAUGCCUCCAAA [A14G C16U G41U] and report it.
Result :: 0.00243

Query :: Find the recorded self-cleavage kobs at 10000 uM GlcN6P belonging to AUAAAAGUGCCAGAACUACAGAAAUGUAGUUGACGAGGAGGAGGUUUAUCGAAUUUUCGGCUGAUGCCGCCAAA [C8U G62U U69G] and report it.
Result :: 0.000358

Query :: Find the recorded self-cleavage kobs at 10000 uM GlcN6P belonging to AUAAAAGCGCCAGCACUACAGAAAUGUAGUUGUCGAGGAGGAGGUUUAUCGAUUUGUCGGCGGAUGCCUCCAAA [A14C A33U A53U U56G] and report it.
Result :: 2.92e-05

Query :: Find the recorded self-cleavage kobs at 10000 uM GlcN6P belonging to AUAAAAGCGCUAGAACUACAGAAAUGUAGUUGACGAGGAGGAGGUUUAUCGAAUGUUCGGCGGAAGCCUCCAAA [C11U U55G U65A] and report it.
Result :: 4.36e-05

Query :: Find the recorded self-cleavage kobs at 10000 uM GlcN6P belonging to AUAAAAGCGCCAGAACUACAGAAAUGUAGCUCACGAGGAGGAGGUUUAUCGAAUUUUCGGCGGAUGCCUCCAAA [U30C G32C] and report it.
Result :: 0.0003

Query :: Find the recorded self-cleavage kobs at 10000 uM GlcN6P belonging to AUAAAAGCGCUAGAAGUACAGAAAUGUAGUUGACGAGGAGGAGGUUUAUCGAAUUUUCGGCGGAUGCCUGCAAA [C11U C16G C70G] and report it.
Result :: 0.000142

Query :: Find the recorded self-cleavage kobs at 10000 uM GlcN6P belonging to AUAAAAGCGCCAGGACUACAGAAAUGUAGUUGACGAGGAAGAGGUUUAUCGAAUUUUCGGCGGAUGCCUCCAAA [A14G G40A] and report it.
Result :: 0.0666

Query :: Find the recorded self-cleavage kobs at 10000 uM GlcN6P belonging to AUAAAAGCGCCAGAAUUACAGAAAUGUAGUUGACGAGGAGGAGGUAUAUCGAAUUUUCGGCGGAUGCCUCCAAA [C16U U46A] and report it.
Result :: 0.00249

Query :: Find the recorded self-cleavage kobs at 10000 uM GlcN6P belonging to AUAAAAGCGCCAGAAGUACAGAAAUGUAUUUGACGAGGAGGAGGUUUAUCGAAUUUUAGGCGGAUGCCUCCAAA [C16G G29U C58A] and report it.
Result :: 0.000585

Query :: Find the recorded self-cleavage kobs at 10000 uM GlcN6P belonging to AUAAAAGCGCCAAAACUACAGAAAUGUAGUUGACGAGGAGGAGGUUUAUGGAAUGUGCGGCUGAUGCCUCCAAA [G13A C50G U55G U57G G62U] and report it.
Result :: 5.32e-05

Query :: Find the recorded self-cleavage kobs at 10000 uM GlcN6P belonging to AUAAAAGCGCUAGAACUACAGAAAUGUAGUUGACGAGGAGGAGGUUUAUCGAAUUGUCGGCGGAUGCCUCCAAA [C11U U56G] and report it.
Result :: 0.00158

Source listed as the supplement of paper PMC7125110.
